Tested on: S. aureus Mu3
test-name: Secondary screening of compound 13 analogues in combination with gentamicin (growth by OD 595 nm)
details: [Cpd] 5 μM; [Genta] 200 ug/ml; relative to DMSO = 1

>  <compound>
COC(=O)c1ccccc1 [Compound 2]

>  <relative growth>
1.2

$$$$
>  <compound>
CCOc1cc(/C=C2\SC(=S)N(CC(=O)O)C2=O)ccc1OCc1ccc(Cl)cc1

>  <relative growth>
0.88

$$$$
>  <compound>
COc1cc(/C=C2\SC(=S)N(CC(=O)O)C2=O)ccc1OCc1ccccc1F

>  <relative growth>
0.92

$$$$
>  <compound>
COc1ccc(/C=C2\SC(=S)N(CC(=O)O)C2=O)cc1OCc1ccc(Cl)cc1Cl

>  <relative growth>
0.9

$$$$
>  <compound>
O=C(O)CN1C(=O)/C(=C/c2ccc(OCc3ccccc3)cc2)SC1=S

>  <relative growth>
1.18

$$$$
>  <compound>
COc1ccc(/C=C2\SC(=S)N(CC(=O)O)C2=O)cc1OCc1ccc(Cl)cc1

>  <relative growth>
1

$$$$
>  <compound>
COC(=O)c1ccccc1 [Compound 29]

>  <relative growth>
0.89

$$$$
>  <compound>
O=C(O)CN1C(=O)/C(=C/c2cccc(OCc3ccccc3Cl)c2)SC1=S

>  <relative growth>
0.83

$$$$
>  <compound>
COCc1ccccc1

>  <relative growth>
0.93

$$$$
>  <compound>
O=C(O)CN1C(=O)/C(=C/c2cccc(OCc3ccc(Cl)cc3Cl)c2)SC1=S

>  <relative growth>
*0.1

$$$$
